# Test system: Plasmodium falciparum
# experimental.protocol: GSK_TCMDC: Inhibition of Plasmodium falciparum 3D7 in whole red blood cells, using parasite LDH activity as an index of growth. Test compounds present at 2uM
# Assay type: functional
# maps each entry to its Inhibition
measured.parameter: Inhibition (%)

1) O=C(c1ccc(Br)o1)N1N=C(c2cccs2)CC1c1ccc(Br)cc1 (centres undefined) = 96
2) CCCNCc1ccc(-c2ccc(CN(CCOC)C(=O)c3cccc(C#N)c3)cc2)nc1.O=C(O)C(F)(F)F = 84
3) Cc1cccc2nc(-c3ccc(-c4ccc(CN5CCCC(O)C5)cc4)cc3)[nH]c12.O=C(O)C(F)(F)F (centres undefined) = 100
4) FC(F)(F)c1ccc2[nH]c(-c3ccc(-c4cccc(CNCCN5CCNCC5)c4)s3)nc2c1.O=C(O)C(F)(F)F = 91
5) COc1ccc2cc(C=NNc3nc4ccccc4[nH]3)c(Cl)nc2c1 = 100
6) O=C(/C=C/c1ccc(Cl)c(Cl)c1)NCCCCCN1CCC(NC(=O)Nc2ccc(Oc3ccccc3)cc2)C1 (centres undefined) = 99
7) Cc1ccccc1N1CCN(c2ccc(C(=O)NC3CC3)cn2)CC1.O=C(O)C(F)(F)F = 96
8) Cc1cccc2nc(-c3cccc(-c4cccc(NC(=O)CC5NC(=O)c6ccccc65)c4)c3)[nH]c12 (centres undefined) = 92
9) COc1ccc2ncc(F)c([C@@H](O)CN3CCC(NCc4cc5c(cn4)OCS5)CC3)c2c1.Cl = 100
